Data origin: the RepoRT retention time repository (doi:10.1016/j.chroma.2022.462867)

Entries and their LC retention time
Test: RP, Phenomenex Kinetex EVO C18, 150 × 3 mm, 2.6 µm, 40 °C, 0.35 mL/min, estimated dead time 1.9 min; A: water + 0.1% formic acid, pH 3; B: methanol; gradient (min/%B) 0/5 20/100 25/100 30/5
Settings: stereoisomer not certain
Just the number please, in min, no unit attached.

compound: CCC(=O)Nc1ccc(Cl)c(Cl)c1
LC retention time (min): 14.9
//
compound: c1ccc2nccnc2c1
LC retention time (min): 8.84

Sample NS(=O)(=O)c1cc(C2(O)NC(=O)c3ccccc32)ccc1Cl (stereo not given) ; LC retention time observed: 9.19

Sample CCCN(CCC)c1c([N+](=O)[O-])cc(C(F)(F)F)cc1[N+](=O)[O-] ; LC retention time observed: 16.9

Sample Nc1ccc(S(=O)(=O)Nc2ccccn2)cc1 ; LC retention time observed: 5.39

Sample Cn1c(=O)c2[nH]cnc2n(C)c1=O ; LC retention time observed: 5.29

Sample c1ccc2n[nH]nc2c1 ; LC retention time observed: 7.35

Sample NC(=O)N1c2ccccc2C=Cc2ccccc21 [Carbamazepine] ; LC retention time observed: 12.6

Sample Cc1ccc2n[nH]nc2c1 ; LC retention time observed: 9.78

Sample CCOP(=S)(OCC)Oc1ccc([N+](=O)[O-])cc1 ; LC retention time observed: 16.8

====

Assay: RP, Phenomenex Kinetex EVO C18, 150 × 3 mm, 2.6 µm, 40 °C, 0.35 mL/min, estimated dead time 1.9 min; A: water + 5 mM ammonium formate, pH 5; B: acetonitrile; gradient (min/%B) 0/5 20/100 25/100 30/5
Settings: stereoisomer not certain
// assign fulfilled if LC retention time falls strictly below 6 min, else not fulfilled (ties count as not fulfilled)

As a guide, the following entries are already answered.
molecule: CCCc1cc(=O)[nH]c(=S)[nH]1 [Propylthiouracil]
cat: fulfilled
//
molecule: COC(=O)C1CCCCC1S(=O)(=O)NC(=O)NC1=NC(OC)NC(C)N1 (centres undefined) [Metsulfuron-methyl]
cat: fulfilled
//
molecule: Oc1ccc2ccccc2c1N=Nc1ccccc1 [Sudan I]
cat: not fulfilled
//
molecule: Nc1ccc(S(=O)(=O)Nc2ccccn2)cc1 [Sulfapyridine]
cat: fulfilled
//
molecule: O=[N+]([O-])c1ccc2ccc3cccc4ccc1c2c34 [1-Nitropyrene]
cat: not fulfilled

Is LC retention time strictly under 6 min for the entry CC(O)(CS(=O)(=O)c1ccc(F)cc1)C(=O)Nc1ccc(C#N)c(C(F)(F)F)c1 (centres undefined) [Bicalutamide] ?
not fulfilled

Is LC retention time strictly under 6 min for the entry NCC1(CC(=O)O)CCCCC1 [Gabapentin] ?
fulfilled

Is LC retention time strictly under 6 min for the entry CN(C)CC(c1ccc(O)cc1)C1(O)CCCCC1 (centres undefined) [O-Desmethylvenlafaxine] ?
not fulfilled

Is LC retention time strictly under 6 min for the entry COc1ccc(Cl)cc1C(=O)NCCc1ccc(S(=O)(=O)NC(=O)NC2CCCCC2)cc1 [Glibenclamide] ?
not fulfilled

====

Assay: RP, Phenomenex Kinetex EVO C18, 150 × 3 mm, 2.6 µm, 40 °C, 0.35 mL/min, estimated dead time 1.9 min; A: water + 0.1% formic acid, pH 3; B: methanol; gradient (min/%B) 0/5 20/100 25/100 30/5
Details: stereoisomer not certain
observation_type: LC retention time (min)
Just the number please, in min, no unit attached.

compound: Nc1ccc(Cl)cc1
LC retention time (min): 5.28
//
compound: Cc1ccc(S(=O)(=O)N(C)N=O)cc1 [N-Methyl-N-nitrosotoluene-4-sulphonamide]
LC retention time (min): 10.3

Sample O=C(O)c1ccc2ccccc2c1 ; LC retention time observed: 14.1

Sample C#CC1(O)CCC2C3CCC4=CC(=O)CCC4C3CCC21C (stereo unspecified) ; LC retention time observed: 14.9
